measured-target: T1, His-tagged human PD-1 protein (human, UniProt Q15116 25-170, limits assumed)
T1 construct: SPR analyte; also called his-tagged antigen PD-1; not shown: His tag
T1 sequence (Q15116 25-170 limits assumed): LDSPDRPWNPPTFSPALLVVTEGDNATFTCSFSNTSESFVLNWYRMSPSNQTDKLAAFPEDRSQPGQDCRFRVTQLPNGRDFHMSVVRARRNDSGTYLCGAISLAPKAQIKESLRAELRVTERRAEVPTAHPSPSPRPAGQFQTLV
experimental-protocol: SPR (Biacore T200); IgG captured by anti-human Fc gamma, His-tagged human PD-1 as analyte, 1:1 model
Method: The binding affinity of the purified IgGs to human PD-1 protein were determined using a Surface Plasmon Resonance (SPR) biosensor, Biacore T200 (GE Healthcare). Antibodies were captured on the sensor chip pre-coated with anti-human Fc gamma. His-tagged human PD-1 protein was used as analyte. The data of dissociation (kd) and association (kₐ) rate constants were obtained using Biacore T200 evaluation software. The equilibrium dissociation constants (KD) were calculated from the ratio of kd over kₐ. […]
experimental-readout: koff
Answer shape: numeric part, then the unit.

Q: Quick one: koff of chimeric IgG (antibody, V domains shown, Full-length IgG from HEK293-6E cells; also called murine-human chimeric antibody derived from PD1#3) VH: EVQLVESGGDLVKPGGSLKLSCAASGFVFSRYDMAWVRQTPEKRLEWVAFISGGGSNTYYPDTVKGRFTISRDNAKNTLYLQMTSLKSEDTAVYYCISPYYYAMEYWGQGTSVTVSS VL: DIVMTQSHKFISTSVGDRVSITCKASQDVDTAVAWYQQKPGQSPKLLIHWASTRHTGVPDRFTGGGSGTDFTLTLSNVQSEDLADYFCQQYSTFPWTFGGGTRLEIKR ?
A: 0.000129 s⁻¹

Q: Likewise for PD1-BM Ab (IgG) (antibody, V domains shown, Full-length humanized IgG from HEK293 cells) VH: EVQLVESGGGLVQPGGSLRLSCAASGFVFSRYDMAWVRQTPGKGLEWVAFISGGGSNTYYPDTVKGRFTISRDNSKNTLYLQMNSLRAEDTAVYYCISPYYYAMEYWGQGTTVTVSS VL: DIQMTQSPSSISTSVGDRVTITCKASQDVDTAVAWYQQKPGKSPKLLIHWASTRHTGVPSRFSGSGSGTDFTLTLSSVQPEDLADYFCQQYSTFPWTFGGGTKLEIKR ?
A: 0.000139 s⁻¹

Q: Likewise for PD1-BM-min (IgG) (antibody, V domains shown, Full-length humanized IgG from HEK293 cells) VH: EVQLVESGGGLVQPGGSLRLSCAASGFVFSRYDMAWVRQAPGKGLEWVSFISGGGSNTYYPDTVKGRFTISRDNSKNTLYLQMNSLRAEDTAVYYCISPYYYAMEYWGQGTTVTVSS VL: DIQMTQSPSSVSASVGDRVTITCKASQDVDTAVAWYQQKPGKAPKLLIYWASTRHTGVPSRFSGSGSGTDFTLTISSLQPEDFATYYCQQYSTFPWTFGGGTKVEIKR ?
A: 0.000263 s⁻¹

Q: Likewise for AS05617 (IgG) (antibody, V domains shown, Full-length humanized IgG from HEK293 cells) VH: EVQLVESGGGLVQPGGSLRLSCAASGFVFSRYDMAWVRQTPGKGLEWVSFISGGGSNTYYPDTVKGRFTISRDNSKNTLYLQMNSLRAEDTAVYYCISPYYYAMEYWGQGTTVTVSS VL: DIQMTQSPSSISTSVGDRVTITCKASQDVDTAVAWYQQKPGKSPKLLIYWASTRHTGVPSRFSGSGSGTDFTLTISSLQPEDFADYFCQQYSTFPWTFGGGTKVEIKR ?
A: 0.000183 s⁻¹
